# Tested on: ATP;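 note: ATP exposure 15 min at 22 °C before imaging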
# Experimental Details: switch fluorescence ratio, 500 uM ATP over buffer (Cy3 cluster intensity, sum of 5 cycles each) (fold (ratio)); higher = stronger signal-on switching upon ATP binding; sequences stand for … in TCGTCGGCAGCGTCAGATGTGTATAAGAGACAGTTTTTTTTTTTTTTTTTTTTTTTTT…TC
# Measurement Context: aptamer strand: ATP DNA aptamer (quencher-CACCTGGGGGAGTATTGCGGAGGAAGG + anchor), 100 nM annealed; ATP concentration: 500 uM

Sequence Text	switch fluorescence ratio
GCAGTGGGGA	1
CCTGGGGGAG	1.05
ATATGAAGGT	0.989
GAATTTAGCG	1.01
TAATTTACCT	1.28
CAAGTCGTTT	1.02
GTTTGTGGAC	0.997
TTTTTTCGGA	1.01
ATTCGTTGTT	0.997
TTAACTGCAC	1.44
AAGGGGATCG	1.03
AGTCGAAAGC	1.01
AGACTGTCGA	1
CCATTGTGCA	1.01
CGTGCTGTT	1.01
GCTAATAGCC	1.06
TCCACCCTT	1.03
AAGTTGTCAA	1.01
CCGCGGGGTT	1.2
AGAGGGGATG	1.02
AAAGAAAGGA	0.977

---

# Tested on: ATP;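 note: ATP exposure 15 min at 22 °C before imaging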
# Experimental Details: switch fluorescence ratio, 500 uM ATP over buffer (Cy3 cluster intensity, sum of 5 cycles each) (fold (ratio)); higher = stronger signal-on switching upon ATP binding; sequences stand for … in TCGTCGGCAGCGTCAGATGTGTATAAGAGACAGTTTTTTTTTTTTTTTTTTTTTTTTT…TC
# Measurement Context: aptamer strand: ATP DNA aptamer (quencher-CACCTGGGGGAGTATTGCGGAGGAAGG + anchor), 100 nM annealed; ATP concentration: 500 uM
Mark YES for reported switch fluorescence ratio of 1 or greater; mark NO for anything smaller.

Sequence Text	Experimental Target	Class Label
TTTTGAGTAT	ATP	NO
TAGTCGATGC	ATP	YES
ATCAAAACGT	ATP	YES
ATGTTTTTGC	ATP	YES
TCGTGTTCTT	ATP	NO
TTGAGTCGTC	ATP	NO
TTTTGAGCTT	ATP	YES
GGGGGGTACC	ATP	YES
TCCTGATTCT	ATP	YES
CGCGGATTCT	ATP	YES
TTCGCTACGG	ATP	YES

---

# Test system: ATP;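 note: ATP exposure 15 min at 22 °C before imaging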
# Experimental Details: switch fluorescence ratio, 500 uM ATP over buffer (Cy3 cluster intensity, sum of 5 cycles each) (fold (ratio)); higher = stronger signal-on switching upon ATP binding; sequences stand for … in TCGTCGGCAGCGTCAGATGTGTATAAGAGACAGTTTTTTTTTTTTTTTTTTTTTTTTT…TC
# Measurement Context: aptamer strand: ATP DNA aptamer (quencher-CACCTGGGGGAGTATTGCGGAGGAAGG + anchor), 100 nM annealed; ATP concentration: 500 uM
yes means recorded switch fluorescence ratio is 1 or above; no means it is below 1.

Sequence Text	Class Label
CATCTTAGCT	yes
ACGACTTGGT	yes
CGGGAACTGT	no
TAAGTTACAA	yes
GGACAGGGGG	no
TATTGGGAGG	no
TTTTTTCCCT	yes
ACGTTGCAGC	yes
ATTGCTAGGG	yes
TTCCGGGGAT	yes
CGTATGGGAA	yes
GTTGTATGTG	no
GGGTTTTCGT	no
TATATGGTTG	no
ACCAGGTGTG	yes
TCGTAGGTAA	yes
CCAGTAATTG	yes
CCATGAAAAT	yes
ATAGCATACG	yes
GCCAGGAAAA	no
TTGGCTGGTG	yes
TGGAAAAATT	yes
AGTCCGTGCT	yes
ATGGGGTACA	yes
GGGGGTTGCA	no
TTGAAAAAAA	yes
TTGAATTATT	yes
CCGGGAGAAA	yes
GAGCCGCCAG	yes
TAAAGATAGG	yes
